- System: EKVX NSCLC
- experimentDescription: NCI tumour cell line growth inhibition, 48 h
What TGI was measured for each of the following?

Bench note, EKVX NSCLC: entry "C/C(=N\NC(=S)NCCNC(=S)N/N=C(\C)c1ccccn1)c1ccccn1" , its TGI = > 100 µM

Bench note, EKVX NSCLC: entry "CC1=C(C(=O)CC(=O)C(=O)Nc2cccc(Cl)c2C)Sc2ccccc2N1" , its TGI = > 100 µM

Bench note, EKVX NSCLC: entry "COc1cc(/C=C/C(=O)c2cc(OC)c(OC)c(OC)c2)ccc1Oc1nc2c(c(=O)n(C)c(=O)n2C)n1C" , its TGI = > 100 µM

Bench note, EKVX NSCLC: entry C[C@]12CCc3nonc3C1CC[C@@H]1C2CC[C@]2(C)C(=O)CCC12 (some centres undefined) , its TGI = 69.4 µM

Bench note, EKVX NSCLC: entry "CN(CCNC(=O)c1[nH]nc2c1Cc1ccccc1-2)CCNC(=O)c1[nH]nc2c1Cc1ccccc1-2" , its TGI = 38.4 µM

Bench note, EKVX NSCLC: entry "Cc1ccc(S(=O)(=O)N/N=C(/CC(=O)c2c(C)n([O-])c3ccccc3[n+]2=O)C(=O)Nc2ccc(C)c(C)c2)cc1" , its TGI = > 100 µM

Bench note, EKVX NSCLC: entry "CC(C)(C)c1ccc(O)c(C[N+](C)(C)C)c1" , its TGI = > 100 µM

Bench note, EKVX NSCLC: entry "CN(C)C=C1C(=O)N(C)C(=O)N(C)C1=O" , its TGI = > 100 µM

Bench note, EKVX NSCLC: entry "COc1ccc2[nH]c3c(C)c4ccnc(NCCCN(C)CCCNc5ccc6nnn7c8ccccc8c(=O)c5c67)c4c(C)c3c2c1" , its TGI = 2.17 µM

Bench note, EKVX NSCLC: entry "O=C(O)/C=N/NC(=S)NC1CCCCC1" , its TGI = > 100 µM

Bench note, EKVX NSCLC: entry CCOC(=O)N1C=NC23C(c4ccccc4)C(c4ccccc4)C12C(=O)N(C)C(=O)N3C (centres undefined) , its TGI = > 100 µM

Bench note, EKVX NSCLC: entry "O=C(Cc1csc2nc(-c3ccc(Br)cc3)cn12)N/N=C/c1cc(Br)ccc1O" , its TGI = > 100 µM

Bench note, EKVX NSCLC: entry C=C(C)/C=C/C(O)[C@](C)(O)[C@H]1[C@H](O)C[C@@]2(C)[C@@H]3CCc4c(cc(OC5OC(CO)C(O)C(O)C5O)c(O)c4C)C3(C)C(=O)C[C@]12C (some centres undefined) , its TGI = > 100 µM

Bench note, EKVX NSCLC: entry "O=C1Nc2c(Cl)cc(Cl)cc2/C1=N/N=C/c1ccccc1O" , its TGI = 91.5 µM
